Each recorded value in this set is attributed to patent US12180207B2.

# tested_on: recombinant human FGFR2 cytoplasmic domain (amino acids 403-822) (Homo sapiens (Human), UniProt P21802)
# Sequence (P21802 402-821): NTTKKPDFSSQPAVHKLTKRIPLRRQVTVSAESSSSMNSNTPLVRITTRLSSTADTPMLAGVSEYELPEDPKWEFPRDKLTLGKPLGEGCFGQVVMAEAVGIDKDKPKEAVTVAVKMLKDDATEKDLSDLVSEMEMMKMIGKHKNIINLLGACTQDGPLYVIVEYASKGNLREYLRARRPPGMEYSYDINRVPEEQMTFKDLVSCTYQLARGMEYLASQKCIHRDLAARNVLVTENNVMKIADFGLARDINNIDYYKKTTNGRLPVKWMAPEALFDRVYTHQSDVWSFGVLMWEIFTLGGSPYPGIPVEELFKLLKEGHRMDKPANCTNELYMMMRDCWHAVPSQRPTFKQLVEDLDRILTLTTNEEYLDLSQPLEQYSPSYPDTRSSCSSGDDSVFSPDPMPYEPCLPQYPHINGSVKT
# method_description: FGFR2 enzyme activity assay (LanthaScreen TR-FRET)
# run_parameters: 15 μM ATP, 20 min incubation at 22° C., average of multiple determinations if made, read-out: FGFR2 Enz FRET IC50
# Procedure: FGFR2 kinase activity was measured by the Invitrogen LanthaScreen™ Assay technology which directly measures the amount of substrate phosphorylation by TR-FRET using a fluorescently-labeled peptide and Europium-labeled antibody. […] After an additional 60 minute incubation at 22° C., the reaction was measured using a PerkinElmer EnVision multimode plate reader via TR-FRET dual wavelength detection, and the percent of control (POC) calculated using a ratiometric emission factor. […]
attribute_measured: IC50 (nM)

Some solved cases for reference:
> print(dat)
                                   compound  numeric.value
1  COc1cc(-c2cnn(C3CCN(C(=O)C4(F)CN(C(=O)/C=C/CN(C)C)C4)CC3)c2C)cn2ncc(Cl)c12            239
2  C=CC(=O)Nc1cccc(C(=O)N2CCC[C@@H](n3cc(-c4cc(OC)c5c(C#N)cnn5c4)cn3)C2)c1             23
3  C=CC(=O)N1CC[C@H](C(=O)N2CC(n3cc(-c4cc(OC)c5c(C#N)cnn5c4)cn3)C2)C1             17
4  C=CC(=O)N1CC(CN2CCC(n3cc(-c4cc(OC)c5c(C#N)cnn5c4)cn3)CC2)C1             13
5  C=CC(=O)N1CC(C(=O)N2CCC(n3cc(-c4cc(OCC(C)C)c5c(C#N)cnn5c4)cn3)CC2)C1              5

(1) C=CC(=O)N(C)c1ccc(C(=O)N2CCC(n3cc(-c4cc(OC)c5c(C#N)cnn5c4)cn3)CC2)cc1
(2) C=CC(=O)N1CC(C(=O)N2CCC3(CC2)CN(c2ccc(-c4cc(OC)c5c(C#N)cnn5c4)cn2)C3)C1
Query: Consider 1 and 2 . Which of these has its IC50 at a higher number? Identify your selection by its label.
Reply: 2
(2: 11 nM, 1: 5 nM)

###

# tested_on: HEK-293 cells transfected with dox-inducible human wild type FGFR3 (Homo sapiens (Human), UniProt P22607)
# Sequence (P22607 23-806): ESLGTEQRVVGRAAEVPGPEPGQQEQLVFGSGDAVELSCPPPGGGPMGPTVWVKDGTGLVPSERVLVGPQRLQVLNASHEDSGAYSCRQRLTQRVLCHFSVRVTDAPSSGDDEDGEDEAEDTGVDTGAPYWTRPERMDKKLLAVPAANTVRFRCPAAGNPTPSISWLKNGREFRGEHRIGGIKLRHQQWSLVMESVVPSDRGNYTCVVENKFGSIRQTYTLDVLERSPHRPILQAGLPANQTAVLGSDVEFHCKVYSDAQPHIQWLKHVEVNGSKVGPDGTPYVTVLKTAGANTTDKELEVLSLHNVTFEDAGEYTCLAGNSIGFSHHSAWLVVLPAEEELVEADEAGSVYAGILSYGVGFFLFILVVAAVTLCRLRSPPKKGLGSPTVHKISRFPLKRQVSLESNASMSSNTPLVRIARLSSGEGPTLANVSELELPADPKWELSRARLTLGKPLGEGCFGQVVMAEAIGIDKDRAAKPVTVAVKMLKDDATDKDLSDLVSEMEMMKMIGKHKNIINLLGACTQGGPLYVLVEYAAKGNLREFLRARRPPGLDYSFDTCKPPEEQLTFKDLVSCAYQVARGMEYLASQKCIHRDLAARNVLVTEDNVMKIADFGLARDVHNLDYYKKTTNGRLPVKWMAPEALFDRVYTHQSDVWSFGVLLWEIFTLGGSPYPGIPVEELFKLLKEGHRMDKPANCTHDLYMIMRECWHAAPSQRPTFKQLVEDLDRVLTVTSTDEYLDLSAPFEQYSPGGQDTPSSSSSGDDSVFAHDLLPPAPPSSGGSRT
# method_description: FGFR3 pERK cell assay
# Format: cell-based
# run_parameters: HEK-293 dox-inducible FGFR3, 1 hour compound, 100 ng/ml FGF-acidic; maximum concentration 5 μM
attribute_measured: IC50 (nM)

Known results for molecules:
> print(dat)
                                   compound  unit  numeric.value
1  C=CC(=O)N1CC(C(=O)N2CCC3(CC2)CN(c2ccc(-c4cc(OC)c5c(C#N)cnn5c4)cn2)C3)C1    nM             44
2  C=CC(=O)N1CC(F)(C(=O)N2CCC(n3cc(-c4cc(OC)c5c(C#N)cnn5c4)cn3)CC2)C1    nM              8
3  C=CC(=O)N1CC(C(=O)N2C3CCC2CN(c2ccc(-c4cc(OC)c5c(C#N)cnn5c4)cn2)C3)C1    nM             25
4  COc1cc(-c2cnn(C3CCN(C(=O)C4CN(C(=O)C5=CCC5)C4)CC3)c2)cn2ncc(C#N)c12    nM            318

(a) C=CC(=O)N1CC[C@@H](C(=O)N2CCC(n3ncc(-c4cc(OC)c5c(C#N)cnn5c4)c3C)CC2)C1
(b) C=CC(=O)N1CC(F)(C(=O)N2CCN(c3ccc(-c4cc(OC)c5c(C#N)cnn5c4)cn3)CC2)C1
(c) C=CC(=O)N1CC(C(=O)N2CCN(c3ccc(-c4cc(OC)c5c(C#N)cnn5c4)cn3)CC2)C1
Query: // ranking: key=IC50, reverse=True Your answer should be the labels, listed in the requested order.
Reply: a, c, b

###

# tested_on: FGFR3 (SEQ ID NO: 5, amino acids 449-759) (Homo sapiens (Human))
# Sequence (P22607 449-759): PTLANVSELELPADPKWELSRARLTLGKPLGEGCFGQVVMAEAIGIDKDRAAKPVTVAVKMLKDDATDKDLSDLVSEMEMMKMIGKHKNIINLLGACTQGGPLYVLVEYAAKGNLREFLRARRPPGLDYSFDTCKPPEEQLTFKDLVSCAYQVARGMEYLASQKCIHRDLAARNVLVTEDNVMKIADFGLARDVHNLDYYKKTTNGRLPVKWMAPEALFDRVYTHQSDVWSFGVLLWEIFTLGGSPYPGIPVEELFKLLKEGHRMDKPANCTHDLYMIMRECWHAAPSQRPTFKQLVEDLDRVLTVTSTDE
# method_description: LC/MS FGFR3 kobs assay (covalent protein modification)
# Assay type: binding
# run_parameters: 500 nM FGFR3, 3 μM compound
attribute_measured: FGFR3 Enz kobs (min⁻¹)

As a guide, the following entries are already answered.
> print(dat)
                                   compound  numeric.value
1  COc1cc(-c2cnn(C3CN(C(=O)C4(F)CN(C(=O)/C=C/CN(C)C)C4)C3)c2C)cn2ncc(C#N)c12        0.08254
2  C=CC(=O)N1CCC(F)(C(=O)N2CCC(n3cc(-c4cc(OC)c5c(C#N)cnn5c4)cn3)CC2)CC1        0.00418
3  C=CC(=O)N1CC(CN2CCC(n3cc(-c4cc(OC)c5c(C#N)cnn5c4)cn3)CC2)C1          0.013
4  COc1cc(-c2cnn(C3CCN(CC4(OC)CN(C(=O)/C=C/CN(C)C)C4)CC3)c2C)cn2ncc(Cl)c12        0.06559
5  COc1cc(-c2cnn(C3CCN(C(=O)C4CN(C(=O)/C=C/CN(C)C)C4)CC3)c2C)cn2ncc(C#N)c12        0.03526

(I) COc1cc(-c2cnn(C3CCN(C(=O)C4CN(C(=O)/C=C/CN(C)C)C4)CC3)c2)cn2ncc(Cl)c12
(II) C=CC(=O)N1CC(CC)(C(=O)N2CCC(n3cc(-c4cc(OC)c5c(C#N)cnn5c4)cn3)CC2)C1
Query: Of the two listed items, I and II , which carries the larger FGFR3 Enz kobs figure? Give the label of your selection.
Reply: I
(I: 0.02588 min⁻¹, II: 0.01133 min⁻¹)

###

# tested_on: recombinant human FGFR3 (amino acids R397-T806) (Homo sapiens (Human))
# Sequence (P22607 397-806): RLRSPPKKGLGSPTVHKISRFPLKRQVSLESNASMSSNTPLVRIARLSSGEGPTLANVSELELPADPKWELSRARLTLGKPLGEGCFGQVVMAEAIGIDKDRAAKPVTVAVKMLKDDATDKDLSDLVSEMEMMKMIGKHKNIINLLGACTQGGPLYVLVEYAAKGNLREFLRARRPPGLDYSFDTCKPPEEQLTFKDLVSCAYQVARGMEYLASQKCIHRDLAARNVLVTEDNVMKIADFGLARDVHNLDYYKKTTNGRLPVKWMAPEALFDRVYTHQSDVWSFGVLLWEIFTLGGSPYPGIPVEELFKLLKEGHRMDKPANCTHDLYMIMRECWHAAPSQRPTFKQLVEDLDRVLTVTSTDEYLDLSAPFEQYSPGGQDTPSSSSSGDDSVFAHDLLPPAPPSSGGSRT
# method_description: FGFR3 enzyme activity assay (LanthaScreen TR-FRET)
# run_parameters: 25 μM ATP, 10 min incubation at 22° C., average of multiple determinations if made, read-out: FGFR3 Enz FRET IC50
attribute_measured: IC50 (nM)

Consider the worked cases shown below.
> print(dat)
                                   compound  unit  numeric.value
1  CC#CC(=O)N1CC(C(=O)N2CCC(n3cc(-c4cc(OC)c5c(C#N)cnn5c4)cn3)CC2)C1 [Example 139]    nM              4
2  C=CC(=O)N1CC(F)(C(=O)N2CCC(n3cc(-c4cc(OC)c5c(Cl)cnn5c4)cn3)CC2)C1 [Example 121]    nM              9
3  C=CS(=O)(=O)N1CC[C@@H](C(=O)N2CCC(n3cc(-c4cc(OC)c5c(C#N)cnn5c4)cn3)CC2)C1 [Example 185]    nM              3

(I) C=CC(=O)N[C@H]1C[C@H](C(=O)N2CCC(n3cc(-c4cc(OC)c5c(C#N)cnn5c4)cn3)CC2)C1 [Example 45]
(II) C=CC(=O)N1CC2(CCN(C(=O)N3CCC(n4cc(-c5cc(OC)c6c(C#N)cnn6c5)cn4)CC3)CC2)C1 [Example 6]
(III) C=CC(=O)N1CC(CN2CCC(n3ncc(-c4cc(OC)c5c(Cl)cnn5c4)c3C)CC2)C1(C)C (stereo not shown) [Example 120]
(IV) C=CS(=O)(=O)N[C@H]1CC[C@H](C(=O)N2CCC(n3cc(-c4cc(OC)c5c(C#N)cnn5c4)cn3)CC2)C1 [Example 190]
(V) C=CC(=O)N1CC(F)(C(=O)N2CCN(c3cc(C)c(-c4cc(OC)c5c(C#N)cnn5c4)cn3)CC2)C1 [Example 114]
Query: Highest IC50 first, then in falling order down to the smallest. Lab note: record answer as labels in requested order.
Reply: V, III, I, II, IV
(V: 258 nM, III: 72 nM, I: 8 nM, II: 4 nM, IV: 1 nM)

###

# tested_on: FGFR3 (SEQ ID NO: 5, amino acids 449-759) (Homo sapiens (Human))
# method_description: LC/MS FGFR3 kobs assay (covalent protein modification)
# Type: binding
# run_parameters: 500 nM FGFR3, 3 μM compound
attribute_measured: FGFR3 Enz kobs (min⁻¹)

// known answers, use as guide
> print(dat)
                                   molecule  numeric.value
1  C=CC(=O)N1CC(C(=O)N2CC[C@H](n3cc(-c4cc(OC)c5c(C#N)cnn5c4)cn3)C2)C1        0.00908
2  C=CC(=O)N1CCC(NC(=O)c2ccc(-c3cc(OC)c4c(C#N)cnn4c3)cc2)CC1        0.00177
3  C=CC(=O)N1CC(OC)(C(=O)N2CCC(n3ncc(-c4cc(OC)c5c(Cl)cnn5c4)c3C)CC2)C1        0.03885

(A) C=CC(=O)N1CC(CN2CCC(n3ncc(-c4cc(OC)c5c(Cl)cnn5c4)c3C)CC2)C1(C)C (stereo not shown)
(B) C=CC(=O)N[C@H]1C[C@H](C(=O)N2CC[C@@H](n3cc(-c4cc(OC)c5c(C#N)cnn5c4)cn3)C2)C1
Query: Which has the higher FGFR3 Enz kobs, A or B ? Give the label of your selection.
Reply: A
(A: 0.00758 min⁻¹, B: 0.00083 min⁻¹)
